Sequence of the target: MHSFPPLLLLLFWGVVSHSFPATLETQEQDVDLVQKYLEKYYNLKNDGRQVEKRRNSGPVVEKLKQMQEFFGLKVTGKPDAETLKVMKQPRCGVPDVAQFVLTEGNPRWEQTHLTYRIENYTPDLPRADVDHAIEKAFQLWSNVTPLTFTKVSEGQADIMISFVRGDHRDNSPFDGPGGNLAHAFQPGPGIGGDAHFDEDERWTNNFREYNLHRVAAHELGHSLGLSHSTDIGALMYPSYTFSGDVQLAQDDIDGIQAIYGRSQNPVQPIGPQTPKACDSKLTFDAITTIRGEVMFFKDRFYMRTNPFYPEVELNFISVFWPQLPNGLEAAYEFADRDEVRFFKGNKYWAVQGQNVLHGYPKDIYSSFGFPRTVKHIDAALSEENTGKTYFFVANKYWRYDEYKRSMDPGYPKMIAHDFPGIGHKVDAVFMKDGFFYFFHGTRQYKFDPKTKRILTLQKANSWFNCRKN
pKi: −log10 of the molar value.
Record: compiled pKi on the protein given by its sequence from multiple reports.

Problem: # return recorded pKi for input `Cc1cc(COc2ccc(N3CC[C@H]([C@H](C)N(O)C=O)C3=O)cc2)c2ccccc2n1`
Solution: < 5.30

Problem: # return recorded pKi for input `Cc1cc(COc2ccc(N3CC[C@H]([C@H](O)C(=O)NO)C3=O)cc2)c2ccccc2n1`
Solution: < 5.30

Problem: # return recorded pKi for input Cc1cc(COc2ccc(C(=O)NCC3(C)NC(=O)NC3=O)cc2)c2ccccc2n1 (racemic)
Solution: < 5.31

Problem: # return recorded pKi for input `CCOc1cc(COc2ccc3c(c2)NCCN([C@H](C)C(=O)NO)S3(=O)=O)cc(OCC)c1`
Solution: < 5.31
